# test_method_notes: physchem
# condition_set: aqueous medium with DMSO
measurement_type: solubility at 0.25 h (µg/mL)
Give bare numbers, in µg/mL.

### Prompt Report solubility at 0.25 h for COc1cccc2c1nc(C(F)F)n2-c1nc(N2CCOCC2)nc(N2CCN(S(=O)(=O)CCN(C)C)CC2)n1.Cl please.
### Response 24

###

# test_method_notes: physchem
# condition_set: buffer
measurement_type: solubility

### Prompt Fill blank: measured solubility of the molecule COc1cccc2c1nc(C(F)F)n2-c1nc(N2CCOCC2)nc(N2CCN(S(=O)(=O)CCN(C)C)CC2)n1.CS(=O)(=O)O is ____.
### Response > 0.059 mg/mL
